- test target: corticotropin releasing factor 1 receptor
- test name: cell-based or functional assay
Ends that are not written are not given here.
Would you kindly list CRF1R EC50 for each of these binders?

Data request: Request the reported CRF1R EC50 associated with IVLSLDVPIGLLQILLEQERQRAAREQATTNARILARV-NH2 [SEQ ID NO 111]
Data returned: > 100 nM

Data request: Request the reported CRF1R EC50 associated with ZGPPISIDLPTYLLRKMIEIEKQEKEKQQAANNRLLLDTI (C-terminal amide) [SEQ ID NO 70]
Data returned: > 100 nM

Data request: Request the reported CRF1R EC50 associated with ZGPPISIDLPIDLLRKMIEIEKQEKEKQQAANNRLLLDTI (C-terminal amide) [SEQ ID NO 28]
Data returned: > 1000 nM

Data request: Request the reported CRF1R EC50 associated with ZGPPISIDLPLYLLRKMIEIEKQEKEKQQAANNRLLLDT (C-terminal amide) [SEQ ID NO 81]
Data returned: 60.9 nM

Data request: Request the reported CRF1R EC50 associated with ZGPPISIDLPLHLLRKMIEIEKQEKEKQQAANNRLLLDTI (C-terminal amide) [SEQ ID NO 83]
Data returned: 52.2 nM

Data request: Request the reported CRF1R EC50 associated with IVLSLDVPIGLLQILLEQTKARAAREQATTNARILARV-NH2 [SEQ ID NO 117]
Data returned: 100 nM

Data request: Request the reported CRF1R EC50 associated with IVLSLDVPIGLLQILLEQAAAREQATTNARILARV-NH2 [SEQ ID NO 139]
Data returned: > 100 nM

Data request: Request the reported CRF1R EC50 associated with DNPSLSIDLPTYLLRTLLELARTQSQRERAEQNAIIFASV-NH2 [SEQ ID NO 173]
Data returned: 1000 nM

Data request: Request the reported CRF1R EC50 associated with IVLSLDVPIGLLQTLLELARTQSQRERAEQNRIIFDSV-NH2 [SEQ ID NO 160]
Data returned: > 100 nM

Data request: Request the reported CRF1R EC50 associated with ZGPPISIDLPTELLRKMIEIEKQEKEKQQAANNRLLLDTI (C-terminal amide) [SEQ ID NO 71]
Data returned: > 100 nM

Data request: Request the reported CRF1R EC50 associated with ZGPPISIDLPFHLLRKMIEIEKQEKEKQQAANNRLLLDTI (C-terminal amide) [SEQ ID NO 69]
Data returned: 34.5 nM

Data request: Request the reported CRF1R EC50 associated with ZGPPISIDLPLELLRKMIEIEKQEKEKQQATTNARILARV (C-terminal amide) [SEQ ID NO 143]
Data returned: 232 nM
